All values here come from ChEMBL document CHEMBL1129412.

Assay: logBB, log(C brain / C blood)
Conditions: blood
Readout Type: Kp
Reply with the value as a number alone.

Solved entries (count: 2):
molecule="CN1Cc2c(-c3noc(C(C)(O)CO)n3)ncn2-c2cccc(Cl)c2C1=O (stereo not drawn)" numeric_value=0.0151
molecule=CCCCCC numeric_value=6.31

*Q* Provide measured Kp value, entry: NC(=O)N1c2ccccc2C=Cc2ccccc21 [CARBAMAZEPINE]
*A* 1

---

Experiment: logBB, log(C brain / C blood)
Settings: brain / blood
Classify by Kp. Ranges: Low: < 0.5; Mid: ≥ 0.5 and < 1; High: ≥ 1

The examples below pair each entry with its known result.
molecule=CN1Cc2c(-c3noc(C(C)(C)O)n3)ncn2-c2cccc(Cl)c2C1=O classification=Low
molecule="CCCCC [PENTANE]" classification=High
molecule="CC(C)CO [ISOBUTANOL]" classification=Mid
molecule="N#N [NITROGEN]" classification=High
molecule=CCCC(C)C classification=High
molecule=CN(C)Cc1ccc(-c2cccc(Nc3[nH]ccc3[N+](=O)[O-])c2)o1 classification=Mid

*Q* Each molecule maps to one class by Kp. Which class for NC(=O)N1c2ccccc2C2OC2c2ccccc21 (stereo unspecified) [CARBAMAZEPINE EPOXIDE] ?
*A* Low

*Q* Each molecule maps to one class by Kp. Which class for `CCC(C)(C)C` ?
*A* High

*Q* Each molecule maps to one class by Kp. Which class for C [METHANE] ?
*A* High

*Q* Each molecule maps to one class by Kp. Which class for `FC(F)(F)CCl` ?
*A* High

---

Overview of reported Kp across a group of molecules:
Experiment: logBB, log(C brain/C blood)
Details: brain / blood

Solved entries (count: 3):
input_smiles=C/N=C(\NC#N)Nc1cccc(-c2csc(N=C(N)N)n2)c1 result=0.0288
input_smiles=O=[N+]([O-])c1c(Cc2ccccc2)c[nH]c1NCCSCc1ccccn1 result=0.759
input_smiles=CN(C)Cc1ccc(CSCCNc2ncc(Cc3ccc4ccccc4c3)c(O)n2)o1 result=0.0501

*Q* Provide measured Kp value, entry: `O=[N+]([O-])c1cc[nH]c1NCCSCc1ncccc1Br`
*A* 0.214

*Q* Provide measured Kp value, entry: `Cc1ccc(Cc2c[nH]c(NCCSCc3ccc(CN(C)C)o3)nc2=O)cn1`
*A* 0.0871

*Q* Provide measured Kp value, entry: `CN(C)c1cc(-c2n[nH]c(N)n2)ccn1`
*A* 0.0676

*Q* Provide measured Kp value, entry: `N=C(N)Nc1nc(-c2cccc(N)c2)cs1`
*A* 0.0708

*Q* Provide measured Kp value, entry: `CN(C)Cc1ccc(CSCCNc2[nH]ccc2[N+](=O)[O-])o1`
*A* 0.0759

*Q* Provide measured Kp value, entry: `NC(N)=Nc1nc(-c2ccccc2)cs1`
*A* 0.661

---

Assay: logBB, log(C brain / C blood)
Conditions: blood
Response field label takes class 1 when Kp is strictly below 2 and class 0 in all other cases.

The examples below pair each entry with its known result.
molecule=CC(Cl)(Cl)Cl classification="class 0"
molecule="CCCC(C)CC (stereo unspecified)" classification="class 0"
molecule=CC1CCCC1 classification="class 0"
molecule=CCCCCCC classification="class 0"
molecule=C=COCC(F)(F)F classification="class 1"
molecule=CCC(C)CC classification="class 0"
molecule="FC(F)(F)C(Cl)Br (stereo unspecified)" classification="class 0"
molecule=CC(C)O classification="class 1"

*Q* In plain terms, does `Cc1ccccc1` come in under 2 for Kp?
*A* class 0

*Q* In plain terms, does FC(F)OC(Cl)C(F)(F)F (stereo unspecified) come in under 2 for Kp?
*A* class 0

*Q* In plain terms, does `CCO` come in under 2 for Kp?
*A* class 1

---

Assay: The ratio of brain-blood partitioning, (C brain / C blood).
Format: ADME, tissue-based
Readout Type: Kp
Reply with the value as a number alone.

Solved entries (count: 5):
compound="NC(=O)N1c2ccccc2C2OC2c2ccccc21 (stereo unspecified) [CARBAMAZEPINE EPOXIDE]" numeric_value=0.46
compound="CN1Cc2c(-c3noc(C(C)(O)CO)n3)ncn2-c2cccc(Cl)c2C1=O (stereo unspecified)" numeric_value=0.015
compound="CN(C)CCC=C1c2ccccc2CCc2ccccc21 [AMITRIPTYLINE]" numeric_value=9.6
compound="NC(=O)N1c2ccccc2C=Cc2ccccc21 [CARBAMAZEPINE]" numeric_value=1
compound=CC(C)c1nc(-c2ncn3c2CN(C)C(=O)c2c(Cl)cccc2-3)no1 numeric_value=0.5

Please turn your attention to the following entry.
*Q* Provide measured Kp value, entry: `CN1Cc2c(-c3noc(C(C)(C)O)n3)ncn2-c2cccc(Cl)c2C1=O`
*A* 0.046

---

Assay: logBB, log(C brain/C blood)
Conditions: blood
Lab note: anything with Kp at or over 0.6 counts as Yes; the rest go in No.

compound="COc1ccc(CN(CCN(C)C)c2ccccn2)cc1 [PYRILAMINE]" classification=Yes
compound="CN/C(=N/CCSCc1nc[nH]c1C)NC#N [CIMETIDINE]" classification=No
compound=CN(C)Cc1ccnc(-c2cccc(Nc3[nH]ccc3[N+](=O)[O-])c2)c1 classification=No
compound=Cc1csc(N=C(N)N)n1 classification=Yes
compound=O=C(NCCCOc1cccc(CN2CCCCC2)c1)c1ccccc1 classification=No
compound=c1cc(CN2CCCCC2)cc(OCCCNc2nccs2)c1 classification=Yes

*Q* Determine whether this compound has Kp no lower than 0.6: `CC(=O)Nc1cccc(-c2csc(N=C(N)N)n2)c1`
*A* No

*Q* Determine whether this compound has Kp no lower than 0.6: `CN(C)Cc1ccc(CSCCNc2[nH]cc(Cc3ccccc3)c2[N+](=O)[O-])o1`
*A* No

*Q* Determine whether this compound has Kp no lower than 0.6: COc1cccnc1CCCCNc1ncc(Cc2ccc(C)nc2)c(=O)[nH]1 [ICOTIDINE]
*A* No

*Q* Determine whether this compound has Kp no lower than 0.6: `CC(=O)NCCCOc1cccc(CN2CCCCC2)c1`
*A* No

---

Overview of reported Kp across a group of molecules:
Assay: logBB, log(C brain / C blood)
Conditions: blood
Reply with the value as a number alone.

molecule=ClC=C(Cl)Cl readout_type=Kp numeric_value=2.19
molecule=c1ccccc1 readout_type=Kp numeric_value=2.34
molecule="FC(F)OC(F)(F)C(F)Cl (stereo not given)" readout_type=Kp numeric_value=1.74

*Q* Provide measured Kp value, entry: FC(Br)C(F)(F)F (stereo not given)
*A* 1.86

*Q* Provide measured Kp value, entry: `CCC(C)=O`
*A* 0.832

---

Test: logBB, log(C brain/C blood)
Details: blood
Overview of reported Kp across a group of molecules:
Reply with the value as a number alone.

Solved entries (count: 2):
input_smiles=CN(C)CCCN1c2ccccc2CCc2ccccc21 numeric_value=6.76
input_smiles=CC/N=C(\NC#N)NCCSCc1ncccc1Br numeric_value=0.00708

Please turn your attention to the following entry.
*Q* Provide measured Kp value, entry: `c1ccc(NCCCOc2cccc(CN3CCCCC3)c2)nc1`
*A* 4.9
